Entry source: patent US20250340623A1

assayedTarget: monomeric alpha-synuclein (UniProt P37840 1-140)
experimentDescription: SPR, captured mAb
Reported kon values for the following binders.
Number in M⁻¹ s⁻¹, nothing else.

Consider the worked cases shown below.
>>> numericreadout("ACI-7079-2601B6-Ab1 (antibody, V domains shown, mouse hybridoma mAb; VH/VL only; also called 2601B6D2; ACI-7079-26016NAbM) VH: EIQLQQSGAELVRPGASVKLSCTTSGFNIKDDYIHWVKQRPEQGLEWIGWIDPENGDTDYASKFQGKATITADTSSNTAYLHLSSLTSEDAAVYFCTTRGFGYWGQGTLVTVS VL: DIVMTQSHKFMSTSVGDRVSITCKASQDVGNVVAWYQQKPGQSPKLLIYWASSRHTGVPDRFTGSGSGTEFTLTISNVQSEDLADYFCQQYSSYPLTFGAGTKLELK")
290000
>>> numericreadout("ACI-8031-6207G10-Ab1 (antibody, V domains shown, mouse hybridoma mAb; VH/VL only; also called 6207G10E6) VH: QVQLQQSGAELVKPGASVKISCKASGYAFSSYWMNWVKQRPGKGLEWIGQIYPGDGDTNYNGKFKGKATLTADRSSSTAYMQLSSLTSEDSAVYFCAITHYDYWGQGTTLTVSS VL: DILLTQSPAILSVSPGDRVSFSCRASQSIGTRIHWYQQRTNGSPRLLIKYASESISGTPSRFSGSGSGTDFTLSINSVESEDIADYYCQQSNSWPLTFGAGTKLELK")
85300

Below: the item to evaluate.
Measured kon, ACI-8033-6402E2-Ab2 (antibody, V domains shown, mouse hybridoma mAb; VH/VL only; also called 6402E2E4) VH: EVQLQHSGPDLVKPGASVKISCKASGYTFTDYYMNWVKQSHGKSLEWIGDINPNNGDTTYNQKFKGRATLTVDKSSSTAYMELRSLTSEDSAVYYCARSGSNYYAMDSWGQGTSVTVSS VL: DIVMSQSPSSLAVSAGERVTMSCKSSQSLFNSRTRKNYLAWYQQKPGQSPKLLIYWASTRESGVPDRFTGSGSGTDFSLNISSVQAEDLAVYYCKQSYDLWTFGGGTKLEIK : 200000
